tested on: A673 NR0B1-luciferase reporter, viability-normalised luminescence; experiment: suppressors of NR0B1-promoter luciferase reporter, dose response, EWS/Fli inhibitor project, luciferase luminescence, A673 cells, cherry-pick (AID 686920)
quantity-name: AC35

Could you tell me which AC35 is on file for `Cc1c(CCOC(=O)CC23CC4CC(CC(C)(C4)C2)C3)sc[n+]1CC(=O)c1ccccc1` ?
16.9 µM

Moving on to the next molecule: `C[C@H](CO)N1C[C@H](C)[C@H](CN(C)Cc2ccc(Oc3ccccc3)cc2)Oc2ccc(NC(=O)Cn3cnnn3)cc2CC1=O`
33.2 µM

Lookup CCc1ccc(N2C=C(C(=O)OC)C(c3ccc(OC)cc3)C(C#N)=C2N)cc1 (stereo unspecified)
5.38 µM

Another molecule to check: `Cc1ccc(S(=O)(=O)N(C)C[C@@H]2Oc3ccc(NC(=O)CCCCCC(=O)Nc4ccccc4N)cc3CC(=O)N([C@@H](C)CO)C[C@@H]2C)cc1`
11 µM

Please give the result for CC(C)CC(NC(=O)c1cccs1)c1nnc(SCc2ccc(Cl)c(Cl)c2)n1C (stereo unspecified) too.
39.5 µM

What about `C[C@H]1CN([C@@H](C)CO)C(=O)Cc2cc(NC(=O)CCC(F)(F)F)ccc2O[C@H]1CN(C)Cc1ccc(C(=O)Nc2ccccc2N)cc1` ?
6.66 µM

Cool, now `C[C@@H]1CN([C@@H](C)CO)C(=O)Cc2cc(NC(=O)C3CCCCC3)ccc2O[C@H]1CN(C)Cc1ccc(C(=O)Nc2ccccc2N)cc1`
29.1 µM

Repeat for the following molecule: `C[C@]12CC[C@H]3[C@@H](CC[C@]4(O)C[C@@H](O)CC[C@]34C=O)[C@@]1(O)CC[C@@H]2C1=CC(=O)OC1`
0.626 µM

Next: `S=c1[nH]nc(-c2cc(-c3ccccc3)n[nH]2)n1/N=C/C(Br)=C/c1ccccc1`
10.4 µM

Thanks! And `N#C[C@H]1[C@H](c2ccc(-c3ccccc3F)cc2)[C@@H](CO)N1C(=O)Cc1ccccc1` ?
3.31 µM

Next up: `O=C(Nc1ccc(Br)cc1)c1ccc(F)c(S(=O)(=O)N2CCN(c3ccccn3)CC2)c1`
7.79 µM

Likewise for `COc1cccc(Sc2ccccc2/C=N/NC(N)=O)c1` ?
2.17 µM

Also, `COC(=O)Cc1ccc(NC(=O)c2ccccc2Cl)cc1` please.
2.6 µM

What do you get for `C[C@H]1CN([C@@H](C)CO)S(=O)(=O)c2ccc(C#Cc3ccncc3)cc2O[C@@H]1CN(C)S(=O)(=O)c1ccccc1` ?
24.4 µM

# repeat for CC(=O)OC1CC(OC2C(O)CC(OC3C(O)CC(OC4CCC5(C)C(CCC6C5CCC5(C)C(C7=CC(=O)OC7)CCC65O)C4)OC3C)OC2C)OC(C)C1OC1OC(CO)C(O)C(O)C1O (stereo unspecified)
0.0893 µM

Same question, `Cc1csc(NC(=O)CCc2c(C)nc3cc(-c4ccc(Cl)cc4)nn3c2C)n1` this time
0.284 µM
